experimental.target: T1, cynomolgus monkey BCMA (cynomolgus monkey, UniProt A0A2K5UD97 1-53)
T1 construct: Soluble analyte in SPR; construct not described; also called cyBCMA; Cyno BCMA
T1 sequence (A0A2K5UD97 entry or part of it): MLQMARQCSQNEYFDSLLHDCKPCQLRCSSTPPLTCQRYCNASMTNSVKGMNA
assay.comment: SPR, IgG on chip, cyBCMA analyte, 37C
measured.property: pKd
Please keep in mind that pKd is minus log10 of the molar concentration; only the number is needed.

stdin: # return recorded pKd for input L3.PY/L1.PH/H3.TAQ (antibody, V domains shown, IgG) VH: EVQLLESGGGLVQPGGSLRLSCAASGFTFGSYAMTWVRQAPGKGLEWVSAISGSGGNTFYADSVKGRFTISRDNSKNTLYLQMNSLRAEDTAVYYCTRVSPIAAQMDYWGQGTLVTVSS VL: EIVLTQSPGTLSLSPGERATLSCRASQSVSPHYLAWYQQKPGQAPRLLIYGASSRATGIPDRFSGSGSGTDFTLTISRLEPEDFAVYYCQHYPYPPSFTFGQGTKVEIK
stdout: 8.89

stdin: Supply reported pKd belonging to this binder: L3.PY/L3.KF/H3.YA (antibody, V domains shown, IgG) VH: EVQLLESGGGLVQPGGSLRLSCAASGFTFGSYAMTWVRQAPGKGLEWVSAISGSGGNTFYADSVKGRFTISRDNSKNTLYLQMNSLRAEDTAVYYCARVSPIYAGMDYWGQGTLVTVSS VL: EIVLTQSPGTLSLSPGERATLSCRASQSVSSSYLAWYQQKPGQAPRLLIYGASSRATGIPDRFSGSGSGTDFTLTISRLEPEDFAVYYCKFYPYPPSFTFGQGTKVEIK
stdout: 8.42

stdin: Supply recorded pKd for L3.PY/L1.AH/H3.TAQ (antibody, V domains shown, IgG) VH: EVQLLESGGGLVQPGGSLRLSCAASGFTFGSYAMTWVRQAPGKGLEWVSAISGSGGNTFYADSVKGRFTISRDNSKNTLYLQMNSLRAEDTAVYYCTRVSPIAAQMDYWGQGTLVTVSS VL: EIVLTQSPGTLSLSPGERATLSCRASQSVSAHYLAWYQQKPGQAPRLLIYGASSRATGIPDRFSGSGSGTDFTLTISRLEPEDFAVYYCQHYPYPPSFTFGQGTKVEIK here.
stdout: 8.88

stdin: Provide measured pKd value, entry: L3.PY/L1.PH/H2.HA (antibody, V domains shown, IgG) VH: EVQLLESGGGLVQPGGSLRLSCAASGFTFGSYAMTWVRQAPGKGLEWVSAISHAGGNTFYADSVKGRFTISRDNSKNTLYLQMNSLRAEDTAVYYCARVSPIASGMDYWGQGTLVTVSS VL: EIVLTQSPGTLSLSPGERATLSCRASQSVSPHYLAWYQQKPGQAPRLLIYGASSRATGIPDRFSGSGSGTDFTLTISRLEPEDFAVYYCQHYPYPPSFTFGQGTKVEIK
stdout: 8.46

stdin: Give a short answer stating reported pKd for L3.PY/L3.KY/H2.QL (antibody, V domains shown, IgG) VH: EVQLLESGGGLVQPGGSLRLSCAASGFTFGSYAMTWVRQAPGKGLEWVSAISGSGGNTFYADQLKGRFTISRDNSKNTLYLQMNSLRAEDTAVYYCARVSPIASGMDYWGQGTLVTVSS VL: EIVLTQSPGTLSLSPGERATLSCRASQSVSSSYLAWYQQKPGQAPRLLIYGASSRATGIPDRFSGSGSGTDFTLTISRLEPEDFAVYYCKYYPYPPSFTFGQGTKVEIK .
stdout: 8.83

Each recorded value in this set is attributed to patent US20190241669A1.
